# Assayed system: hOAT (Homo sapiens, UniProt P04181)
# Sequence (P04181 36-439 limits assumed): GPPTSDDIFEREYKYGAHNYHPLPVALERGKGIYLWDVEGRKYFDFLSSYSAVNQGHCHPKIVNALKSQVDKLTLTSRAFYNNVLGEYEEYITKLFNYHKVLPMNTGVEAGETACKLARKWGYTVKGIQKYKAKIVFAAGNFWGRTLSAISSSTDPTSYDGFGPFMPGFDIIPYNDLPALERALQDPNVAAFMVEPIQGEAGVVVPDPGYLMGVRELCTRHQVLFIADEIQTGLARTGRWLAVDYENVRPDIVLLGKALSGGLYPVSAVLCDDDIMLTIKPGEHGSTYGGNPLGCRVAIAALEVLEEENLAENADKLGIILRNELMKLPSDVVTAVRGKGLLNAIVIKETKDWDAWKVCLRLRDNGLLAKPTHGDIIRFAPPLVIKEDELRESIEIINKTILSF
Recorded metric: Kd (µM)
Respond numerically; units are µM and should not be typed.

Hi! What's the reported Kd for "Cl.N[C@H]1C=C(C(=O)O)C[C@@H]1F" on hOAT (Homo sapiens, UniProt P04181)?
1440

The origin of these recorded values is paper PMC9921285.
